- System: Bovine brain tubulin
- test.name: Inhibition of [3H]colchicine binding to tubulin
- assay.context: 1.0 μM tubulin, 5.0 μM [3H]colchicine, mean ±SD
Use 70% as the dividing line for Colchicine binding Inhibition at 5 μM inhibitor, with the line itself on the y side and lower values as n.

molecule: COc1cc2c(cc1OS(N)(=O)=O)CCN(Cc1cc(Cl)c(OC)c(OC)c1)C2 [Compound 12e]
cat: n
--
molecule: COc1cc(CN2CCc3cc(O)ccc3C2)cc(OC)c1OC [Compound 20b]
cat: y
--
molecule: CCc1cc2c(cc1OS(N)(=O)=O)CCN(Cc1cc(Br)c(OC)c(OC)c1)C2 [Compound 15]
cat: y
--
molecule: COc1cc2c(cc1OS(N)(=O)=O)CC(C)N(Cc1cc(Br)c(OC)c(OC)c1)C2 (racemic) [Compound 12j]
cat: n
--
molecule: COc1cc2c(cc1OS(N)(=O)=O)CCN(Cc1cc(Br)c(OC)c(OC)c1)C2 [Compound 12f]
cat: n
